- TESTED ON: hCA IX (Homo sapiens)
- PROTOCOL: stopped flow CO2 hydrase assay, CA inhibition
- CONDITION SUMMARY: recombinant enzyme, pH 7.4, 10 min pre-incubation, from 3 different assays
- Protocol: An SX.18 MV-R Applied Photophysics (Oxford, UK) stopped-flow instrument has been used to assay the catalytic/inhibition of various CA isozymes. […] Stock solutions of inhibitors were prepared at a concentration of 10 mM (in DMSO-water 1:1, v/v) and dilutions up to 0.01 nM done with the assay buffer mentioned above. […] Inhibitor and enzyme solutions were pre-incubated together for 10 min at room temperature prior to assay, in order to allow for the formation of the E-I complex. […]
pKi: −log10 of the molar value.
Respond with 1 (yes) for pKi values of 7 and above, 0 (no) for values below.

{"SMILES": "Cc1ccc(NC(=O)Nc2ccc(S(N)(=O)=O)cc2)cc1NC(=O)Nc1ccc(S(N)(=O)=O)cc1", "LABEL": "1 (yes)"}
{"SMILES": "NS(=O)(=O)c1ccc(NC(=O)Nc2ccc(Cc3ccc(NC(=O)Nc4ccc(S(N)(=O)=O)cc4)cc3)cc2)cc1", "LABEL": "0 (no)"}
{"SMILES": "Cc1ccc(NC(=O)NCCc2ccc(S(N)(=O)=O)cc2)cc1NC(=O)NCCc1ccc(S(N)(=O)=O)cc1", "LABEL": "1 (yes)"}
